Data origin: BigSolDB 2.1

# setup-conditions: in water, 298.2 K
observation-type: solubility (mole fraction)
Could you respond with only the numeric value?

// `Cc1ccc(-c2cc(C(F)(F)F)nn2-c2ccc(S(N)(=O)=O)cc2)cc1` : solubility (mole fraction) value = 8.02e-08

// recorded solubility (mole fraction) for `O=C1NC(=O)C(c2ccccc2)(c2ccccc2)N1` : 1.51e-06

Given item `C=C1CC[C@H](O)C/C1=C/C=C1\CCC[C@]2(C)[C@@H]([C@H](C)CCCC(C)C)CC[C@@H]12` , the value recorded as its solubility (mole fraction) is 1.06e-06

Entry `Cc1ccc(-c2ncc(Cl)cc2-c2ccc(S(C)(=O)=O)cc2)cn1` , solubility (mole fraction) reported as 1.58e-05

* * *

# setup-conditions: in MTBE, 293.15 K
observation-type: solubility (mole fraction)

Briefly, solubility (mole fraction) measured for `CC1=C(/C=C/C(C)=C/C=C/C(C)=C/C=C/C=C(C)/C=C/C=C(C)/C=C/C2=C(C)CCCC2(C)C)C(C)(C)CCC1` : 0.000119

* * *

Collected solubility (mole fraction) values appear next to each entry.
# setup-conditions: in water, 298.15 K
Reply with just the number.

Look over these answered cases.
INSERT INTO results (compound_string, measured) VALUES
  ('O=[N+]([O-])c1ccc(N/N=C/c2ccc[nH]2)cc1', '1.73e-07'),
  ('O=c1[nH]cc(Br)c(=O)[nH]1', 0.000272),
  ('N[C@@H](Cc1cnc[nH]1)C(=O)O', 0.00459);

Entry `O=c1ccc2ccccc2o1` ; solubility (mole fraction) = 0.000235

* * *

// reported solubility (mole fraction) per item
# setup-conditions: in dichloromethane, 298.15 K

INSERT INTO assay_data (compound_string, measured) VALUES
  ('O=P(Oc1ccccc1)(Oc1ccccc1)N1CCN(P(=O)(Oc2ccccc2)Oc2ccccc2)CC1', 0.00843);

For the next question, use this molecule.
Notebook: `CC(C)(C)C(=O)OCOP(=O)(COCCn1cnc2c(N)ncnc21)OCOC(=O)C(C)(C)C` , solubility (mole fraction) read as 0.175

* * *

# setup-conditions: in n-propanol, 313.15 K
observation-type: solubility (mole fraction)
# respond with the number and nothing more

Before answering, review these 2 worked examples.
INSERT INTO results (compound_string, observation_type, measured) VALUES
  ('Nc1ccc(S(=O)(=O)Nc2ncccn2)cc1', 'solubility (mole fraction)', '9.13e-05'),
  ('C/C=C/C=C/C(=O)O', 'solubility (mole fraction)', 0.0938);

Entry `COc1ccc([C@@H]2CC(=O)c3c(O)cc(O[C@@H]4O[C@H](CO[C@@H]5O[C@@H](C)[C@H](O)[C@@H](O)[C@H]5O)[C@@H](O)[C@H](O)[C@H]4O)cc3O2)cc1O` — recorded solubility (mole fraction) = 0.000252

* * *

# setup-conditions: in 1-chlorotetradecane, 298.15 K
observation-type: solubility (mole fraction)
The answer should be a number; do not append a unit.

For `c1ccc2c(c1)[nH]c1ccccc12` the compound record lists solubility (mole fraction) as 0.0024

* * *

# setup-conditions: in methanol, 288.15 K
The reader will find reported solubility (mole fraction) values listed item by item below.
Simply state the number, no unit and no words.

INSERT INTO measurements (compound_string, observation_type, measured) VALUES
  ('NCCC(=O)O', 'solubility (mole fraction)', 0.115);

# context switch: different compound, same solubility (mole fraction)
Consider `CN1COCN(Cc2cnc(Cl)s2)C1=N[N+](=O)[O-]` . Its measured solubility (mole fraction) is 0.00111
